log10(TGI) overview
System: MDA-MB-231 breast
Assay: NCI tumour cell line growth inhibition, 48 h
Units before log transform: µM; reported quantity: TGI; transform: log10.

CC1OC(OC2C(CO)OC(O[C@H]3CC[C@@]4(C)C(=CC[C@H]5[C@@H]6C[C@@H]7O[C@](O)(CC[C@@H](C)COC8OC(CO)C(O)C(O)C8O)[C@@H](C)[C@@H]7[C@@]6(C)CC[C@@H]54)C3)C(OC3OC(C)C(O)C(O)C3O)C2O)C(O)C(O)C1O (some centres not stated) = 1.17
Cc1ccccc1NC(=O)NC(CC(N)=O)c1ccc2c(c1)nc(-c1cccc(Oc3ccc(C(C)(C)C)cc3)c1)n2CCCN1CCCCC1C (configuration not stated) = 0.72
COc1cc(O)c(C(=O)/C=C/c2ccc(O)cc2)cc1Oc1ccc(C(=O)/C=C/c2ccc(O)cc2)c(O)c1 = 0.99
C=C1C(=O)OC2C(C)C3C=CC(=O)[C@@]3(C)C(OC(=O)/C(C)=C/C)C1[C@@H]2OC(C)=O (some centres not stated) = -0.17
CC(=O)NC1C(OCC(=O)NC(C)C(=O)NC(CCC(=O)NCCCCCNc2ccc([N+](=O)[O-])c3[nH]c4ccccc4c(=O)c23)C(N)=O)C(O)C(CO)OC1(C)OCc1ccccc1 (configuration not stated) = 1.50

In: Quick one: log10(TGI) for CCC1OC2C(CC=C(C)C)=C3OC(C)(O)C(C)(CC)C(O)C3=C3OC(=O)C=C1C32 (configuration not stated) ?
Out: 1.88

In: Quick one: log10(TGI) for `COc1ccc2c(CNCCCCO)cc3cc4c(cc3c2c1)OCO4` ?
Out: 0.79

In: Quick one: log10(TGI) for `Cn1c2ccccc2c2c3c(c4c5ccccc5n(CCCCCC#N)c4c21)C(=O)N(O)C3=O` ?
Out: 0.90

###

TGI overview
System: COLO 205 colon
Assay: NCI tumour cell line growth inhibition, 48 h
// return numeric value only (unit: µM, not printed)

In: Quick one: TGI for `CC(C)(C)NNc1c([N+](=O)[O-])cnn(-c2ccccc2)c1=O` ?
Out: 12.6

In: Quick one: TGI for `COc1ccc2c(CNCCCCO)cc3cc4c(cc3c2c1)OCO4` ?
Out: 4.41

In: Quick one: TGI for `O=C(OCCOCCOC(=O)c1c[nH]cc1-c1ccccc1)c1c[nH]cc1-c1ccccc1` ?
Out: 35.6

###

Tested on: HT29 colon
Assay: NCI tumour cell line growth inhibition, 48 h
test.readout: TGI

Cc1c2c(nn1-c1ccc(S/N=C3\SCC(=O)CN3c3ccccc3)cc1)-c1ccccc1CC2 = > 50 µM

In: Quick one: TGI for CC(C)(C)NCC(O)COc1cccc2[nH]c(C#N)cc12 (stereo not given) ?
Out: > 100 µM

In: Quick one: TGI for `Cc1nc2cc(O)c(O)cc2cc1Oc1ccc(NC(=O)Nc2ccc(Cl)c(Cl)c2)cc1` ?
Out: > 32.5 µM

In: Quick one: TGI for `COc1ccc(N=NN2CCCC2)cc1` ?
Out: > 100 µM

In: Quick one: TGI for CC(=O)O[C@H]1CC[C@@]2(C)C(=CC[C@@H]3C2CC[C@]2(C)Nc4oncc4CC32)C1 (stereo not given in full) ?
Out: > 100 µM

###

Tested on: KM20L2 colon
Experiment: NCI tumour cell line growth inhibition, 48 h
TGI overview

Consider the worked cases shown below.
Cc1cc2c(=O)cc(-c3ccc(Cl)cc3)oc2c(C(=O)O)c1C = > 100 µM
COc1nc2c(nc(N)n2C2OC(CO)C(O)C(O)C2O)c(=O)n1C (stereo not given) = > 100 µM
Cc1c2cc[n+](C)cc2c(COC2OC(CO)C(O)C2O)c2c3ccccc3n(C)c12 (stereo not given) = > 100 µM
O=C(/C=C/c1ccccc1F)C(c1ccccc1)c1ccccc1 = 15.6 µM
Cc1cc(Cl)ccc1N1C(=O)C(=O)C(c2nc3ccccc3s2)C(=O)C1=O = > 100 µM

In: Quick one: TGI for `O=c1c(-c2ccccc2)c[nH]c2cc([N+](=O)[O-])c(/C(Cl)=C/c3ccccc3)cc12` ?
Out: > 54.3 µM

In: Quick one: TGI for `Cc1c(Cl)cccc1NC(=O)C(=O)C1C(=O)NC(=O)NC1=O` ?
Out: > 100 µM

In: Quick one: TGI for `O=C(O)/C(Cl)=C(/Cl)C(=O)Nc1cccc(Cl)c1` ?
Out: 47.3 µM

In: Quick one: TGI for CC(=O)O[C@H]1CC[C@@]2(C)C(=CC[C@@H]3C2CC[C@]2(C)Nc4oncc4CC32)C1 (stereo not given in full) ?
Out: > 100 µM

In: Quick one: TGI for `Cc1[nH]n(C(=O)c2ccccc2O)c(=O)c1/C=C1\C(=O)C=Cc2ccccc21` ?
Out: 75.6 µM
